Each recorded value in this set is attributed to patent US6413947B1.

Counter-ions that a name gives are not always drawn.
QUANTITY_MEASURED: melting point

// worked examples, melting point included
[
  {
    "COMPOUND": "Cc1ccc(-c2cccc(/C=C/C(=O)Nc3ccc(CN4CCCCC4CO)cc3)c2)cc1 (centres unmarked) [Compound 68]",
    "QUANTITY_MEASURED": "melting point",
    "RESULT_VALUE": "137 to 139 °C"
  },
  {
    "COMPOUND": "O=C(C=Cc1cccc(-c2ccc(F)cc2)c1)Nc1ccc(CN2CCCCC2)cc1 [Compound 83]",
    "QUANTITY_MEASURED": "melting point",
    "RESULT_VALUE": "166 to 167 °C"
  },
  {
    "COMPOUND": "Cc1ccc(-c2ccc3c(c2)C=C(C(=O)Nc2ccc(C[N+]4(C)CCCCC4)cc2)CCC3)cc1 (as salt: iodide) [Compound 92]",
    "QUANTITY_MEASURED": "melting point",
    "RESULT_VALUE": "220 to 221 °C (dec.)"
  },
  {
    "COMPOUND": "Cc1ccc(-c2cccc(/C=C/C(=O)Nc3ccc(-c4cccc[n+]4[O-])cc3)c2)cc1 [Compound 189]",
    "QUANTITY_MEASURED": "melting point",
    "RESULT_VALUE": "240 to 241 °C"
  },
  {
    "COMPOUND": "Cc1ccc(-c2cccc(/C=C/C(=O)Nc3ccc(Cc4ccccn4)cc3)c2)cc1 [Compound 190]",
    "QUANTITY_MEASURED": "melting point",
    "RESULT_VALUE": "169 to 171 °C"
  },
  {
    "COMPOUND": "O=C(Nc1ccc(CN2CCCCC2)cc1)C1=Cc2cc(-c3ccccc3)ccc2CC1 [Compound 4]",
    "QUANTITY_MEASURED": "melting point",
    "RESULT_VALUE": "163 to 164 °C"
  },
  {
    "COMPOUND": "CCP(=O)(CC)Cc1ccc(NC(=O)/C=C/c2cccc(-c3ccc(C)cc3)c2)cc1 [Compound 187]",
    "QUANTITY_MEASURED": "melting point",
    "RESULT_VALUE": "197 to 198 °C"
  }
]

Here is another compound to look at.
input: For the compound Cc1ccc(-c2ccc3c(c2)C=C(C(=O)Nc2ccc(C(=O)C4CCCCN4)cc2)CCO3)cc1 (centres unmarked) [Compound 156] , what melting point is on record?
output: 195 to 196 °C (dec.)

====

Items are presented alongside their recorded melting point.

// worked examples, melting point included
[
  {
    "COMPOUND": "Cc1ccc(-c2cccc(/C=C/C(=O)Nc3ccc(CN4CCCC(O)C4)cc3)c2)cc1 (stereo not shown)",
    "QUANTITY_MEASURED": "melting point",
    "RESULT_VALUE": "132 to 134 °C"
  },
  {
    "COMPOUND": "Cc1ccc(-c2ccc3c(c2)C=C(C(=O)Nc2ccc(CN(CCO)CCO)cc2)CC3)cc1",
    "QUANTITY_MEASURED": "melting point",
    "RESULT_VALUE": "150 to 151 °C"
  },
  {
    "COMPOUND": "Cc1ccc(-c2ccc3c(c2)C=C(C(=O)Nc2ccc(CSc4ccccc4)cc2)CCO3)cc1",
    "QUANTITY_MEASURED": "melting point",
    "RESULT_VALUE": "176 to 177 °C"
  }
]

Here is another compound to look at.
input: For the compound `Cc1ccc(-c2cc3c(s2)CCCC(C(=O)Nc2ccc(CN(C)C4CCOCC4)cc2)=C3)cc1` , what melting point is on record?
output: 201 to 203 °C
